assayed-target: human PCSK9 D347Y recombinant protein (human, UniProt Q8NBP7 31-692, biotin label (sites not given) in Examples 3 and 9)
Sequence (Q8NBP7 31-692 D374Y): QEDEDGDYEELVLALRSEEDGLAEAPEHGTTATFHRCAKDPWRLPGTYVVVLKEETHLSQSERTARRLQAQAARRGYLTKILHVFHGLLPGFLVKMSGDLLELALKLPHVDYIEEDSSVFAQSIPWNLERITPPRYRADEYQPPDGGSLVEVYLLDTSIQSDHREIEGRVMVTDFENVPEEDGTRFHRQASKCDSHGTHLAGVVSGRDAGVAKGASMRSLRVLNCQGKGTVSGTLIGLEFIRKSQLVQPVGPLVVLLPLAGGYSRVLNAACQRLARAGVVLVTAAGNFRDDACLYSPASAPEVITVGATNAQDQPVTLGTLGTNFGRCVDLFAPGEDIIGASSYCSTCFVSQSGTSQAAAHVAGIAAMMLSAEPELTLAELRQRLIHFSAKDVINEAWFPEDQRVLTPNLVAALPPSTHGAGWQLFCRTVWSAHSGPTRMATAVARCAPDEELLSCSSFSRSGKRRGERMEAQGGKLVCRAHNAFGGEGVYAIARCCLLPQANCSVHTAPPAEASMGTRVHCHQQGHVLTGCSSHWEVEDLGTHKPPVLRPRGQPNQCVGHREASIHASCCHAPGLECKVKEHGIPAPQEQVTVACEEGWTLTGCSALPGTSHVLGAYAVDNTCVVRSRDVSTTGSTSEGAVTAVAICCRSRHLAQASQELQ
protocol-notes: cell-based or functional assay
assay-endpoint: IC50, LDL uptake of HepG2 cells

Supply measured IC50, LDL uptake of HepG2 cells of 2B12 murine-derived anti-PCSK9 monoclonal antibody (antibody, V domains shown, Mouse hybridoma antibody) VH: DVQLQESGPGLVKPSQSLSLTCSVTGFSITSDYAWNWIRQFPGNKLEWMGYISYSGTTNYNPSLKSRISITRDTSKNQFFLHLNSVITEDTATYYCARREGHYSWFPYWGQGTLVTVSA VL: DIVLTQSPASLAVSLGQRATISCRASESVEYYGTSLMHWYQHKPGQTPKLLIYSGSNVESGVPARFSGSGSGTDFSLNIHPVEEDDIAMYFCQQSREVPSTFGGGTKLEIK in your reply.
~1 µg/mL
